# Experimental system: DHS1^B4 (Arabidopsis thaliana, UniProt P29976, G244R)
# Construct: without the predicted plastid transit peptide (amino acid residues; 49-525, 34-507, and 52-527, respectively); made in house; host or cells: E. coli
# Sequence (P29976 49-525 G244R): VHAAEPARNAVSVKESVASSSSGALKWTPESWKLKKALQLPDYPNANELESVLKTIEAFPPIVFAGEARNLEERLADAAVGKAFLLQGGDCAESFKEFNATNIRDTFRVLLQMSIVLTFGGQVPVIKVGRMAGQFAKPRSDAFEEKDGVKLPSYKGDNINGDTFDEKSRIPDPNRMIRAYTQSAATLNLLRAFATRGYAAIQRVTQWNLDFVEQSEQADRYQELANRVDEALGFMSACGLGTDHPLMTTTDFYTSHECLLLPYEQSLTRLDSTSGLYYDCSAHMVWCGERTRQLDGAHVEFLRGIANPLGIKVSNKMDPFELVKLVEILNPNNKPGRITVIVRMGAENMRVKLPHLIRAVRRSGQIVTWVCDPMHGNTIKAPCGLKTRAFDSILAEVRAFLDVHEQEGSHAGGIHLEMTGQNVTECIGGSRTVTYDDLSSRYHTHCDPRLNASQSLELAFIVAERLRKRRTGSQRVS
# Experimental protocol: DHS enzyme assay, recombinant DHS1^B4
# Assay type: biochemical
# Procedure: To generate recombinant DHS proteins the pET28a vectors carrying the A. thaliana DHS1 (AtDHS1), AtDHS2, or AtDHS3 WT sequence without the predicted plastid transit peptide (amino acid residues; 49-525, 34-507, and 52-527, respectively) were expressed in E. coli Rosetta-2 cells and purified using Ni-affinity chromatography, exactly as was conducted previously (9). […]
Observable: IC50 (µM)
Supply the numeric figure in µM, leaving out any unit text.

Task: Provide measured IC50 value, entry: O=C(O)CCc1c[nH]c2ccccc12
Output: 2000

* * *

# Experimental system: Arabidopsis thaliana DHS1 (SEQ ID NO:1) variant DHS1^B4 (sotaB4), G244R (Arabidopsis thaliana, UniProt P29976, G244R)
# Construct: without the predicted plastid transit peptide (amino acid residues; 49-525, 34-507, and 52-527, respectively); made in house; host or cells: E. coli
# Sequence (P29976 49-525 G244R): as above
# Experimental protocol: DHS enzyme assay with effector, DHS1 sotaB4
# Type: biochemical
Field: log10(IC50). Provide a value for each of the molecules that follow.
Scale: log10; quantity: IC50; unit before log: µM

Task: Provide measured log10(IC50) value, entry: O=C(O)/C=C/c1ccc(O)c(O)c1 [Caffeate]
Output: 1.81

Task: Provide measured log10(IC50) value, entry: O=C(O)C(=O)Cc1c[nH]c2ccccc12 [IPA, indole-3-pyruvate]
Output: 3.70

Task: Provide measured log10(IC50) value, entry: O=C(O)Cc1cc(O)ccc1O [HGA, homogentisate]
Output: 3.48

Task: Provide measured log10(IC50) value, entry: O=C(O)C(=O)Cc1ccc(O)cc1 [HPP, 4-Hydroxyphenylpyruvate]
Output: 2.92

Task: Provide measured log10(IC50) value, entry: C=C(O[C@@H]1C=C(C(=O)O)C=C[C@H]1O)C(=O)O [Chorismate]
Output: 1.40

* * *

# Experimental system: Arabidopsis thaliana DHS2 (SEQ ID NO:2) variant DHS2^A4 (sotaA4), G222S (Arabidopsis thaliana, UniProt Q00218, G222S)
# Construct: without the predicted plastid transit peptide (amino acid residues; 49-525, 34-507, and 52-527, respectively)
# Sequence (Q00218 34-507 G222S): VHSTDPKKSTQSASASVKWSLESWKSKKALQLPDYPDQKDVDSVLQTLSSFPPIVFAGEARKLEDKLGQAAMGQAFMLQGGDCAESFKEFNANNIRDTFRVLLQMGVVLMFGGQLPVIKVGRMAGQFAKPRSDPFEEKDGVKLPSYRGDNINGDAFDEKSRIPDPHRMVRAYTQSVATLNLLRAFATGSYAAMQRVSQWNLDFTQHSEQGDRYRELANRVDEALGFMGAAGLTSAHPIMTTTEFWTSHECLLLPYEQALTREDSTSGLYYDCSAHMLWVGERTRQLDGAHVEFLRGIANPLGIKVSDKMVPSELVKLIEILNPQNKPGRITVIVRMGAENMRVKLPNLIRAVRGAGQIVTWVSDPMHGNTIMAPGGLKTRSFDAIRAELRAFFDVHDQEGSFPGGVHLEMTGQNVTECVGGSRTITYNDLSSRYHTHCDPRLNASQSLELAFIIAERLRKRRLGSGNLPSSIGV
# Experimental protocol: biochemical
Field: pIC50. Provide a value for each of the molecules that follow.
The meaning of pIC50 here: minus log10 of the concentration in molar units.

Task: Provide measured pIC50 value, entry: O=C(O)C(=O)Cc1ccc(O)cc1 [HPP, 4-Hydroxyphenylpyruvate]
Output: 3.84

Task: Provide measured pIC50 value, entry: O=C(O)Cc1cc(O)ccc1O [HGA, homogentisate]
Output: 3.67

Task: Provide measured pIC50 value, entry: C=C(O[C@@H]1C=C(C(=O)O)C=C[C@H]1O)C(=O)O [Chorismate]
Output: 3.99

Task: Provide measured pIC50 value, entry: O=C(O)C(=O)Cc1c[nH]c2ccccc12 [IPA, indole-3-pyruvate]
Output: 4.13

* * *

# Experimental system: DHS2^WT (Arabidopsis thaliana)
# Construct: without the predicted plastid transit peptide (amino acid residues; 49-525, 34-507, and 52-527, respectively); made in house; host or cells: E. coli Rosetta-2
# Sequence (Q00218 34-507): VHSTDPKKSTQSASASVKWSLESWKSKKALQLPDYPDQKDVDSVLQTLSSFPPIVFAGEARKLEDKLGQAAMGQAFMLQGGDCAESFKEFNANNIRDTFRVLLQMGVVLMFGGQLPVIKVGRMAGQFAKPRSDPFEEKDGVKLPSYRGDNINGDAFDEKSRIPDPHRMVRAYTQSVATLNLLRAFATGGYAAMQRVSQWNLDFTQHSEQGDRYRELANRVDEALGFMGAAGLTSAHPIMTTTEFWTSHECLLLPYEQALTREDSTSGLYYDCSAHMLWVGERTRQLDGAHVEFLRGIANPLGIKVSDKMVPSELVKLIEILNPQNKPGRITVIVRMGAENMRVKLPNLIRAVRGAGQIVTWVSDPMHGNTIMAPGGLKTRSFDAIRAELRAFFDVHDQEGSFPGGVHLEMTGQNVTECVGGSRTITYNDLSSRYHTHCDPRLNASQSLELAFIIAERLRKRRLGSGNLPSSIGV
# Experimental protocol: DHS enzyme assay, recombinant DHS2^WT
# Format: biochemical
# Condition context: FIG. 2D
Observable: effect on DHS2 activity (effector screening)

Nc1ccccc1C(=O)[O-].[Na+] [Anthranilate] : slight reduction
NCCc1c[nH]c2ccccc12 : slight reduction
